For each record, write down the corresponding pIC50.
- MEASURED TARGET: CCKB receptor (Cavia porcellus)
- ASSAY PROTOCOL: 125I-CCK-8 receptor binding assay, CCKB (guinea pig cerebral cortex)
- CONDITIONS USED: IC50 CCKB, Table 2
API: returns pIC50 as number; meaning -log10 of concentration in mol/L.

Report pIC50 for O=C1Nc2ccc(Cl)cc2C(c2ccccc2)=NC1Nc1ccccc1 (stereo not drawn) [Example 22] 5.39

Please list pIC50 recorded for the compound O=C1Nc2ccc(Cl)cc2C(c2ccccc2)=NC1NCc1ccccc1 (stereo not drawn) [Example 23] 5.22

Give pIC50 for CC(=O)c1ccccc1NC1N=C(c2ccccc2)c2cc(Cl)ccc2NC1=O (stereo not drawn) [Example 18] 5.08

Read the entry COc1cccc(NC2N=C(c3ccccc3)c3cc(Cl)ccc3NC2=O)c1 (stereo not drawn) [Example 19] and write its reported pIC50. 5.82

Look up and state reported pIC50 for O=C1Nc2ccc(Cl)cc2C(c2ccccc2)=NC1NC1CCCCC1 (stereo not drawn) [Example 30] 5.00

Give reported pIC50 value for CN(Cc1ccccc1)C1N=C(c2ccccc2)c2cc(Cl)ccc2NC1=O (stereo not drawn) [Example 25] 5.54

Kindly indicate its recorded pIC50. Item: O=C1Nc2ccc(Cl)cc2C(c2ccccc2)=NC1N1CCCc2ccccc21 (stereo not drawn) [Example 17] 5.14

Consider the compound CCCNC1N=C(c2ccccc2)c2cc(Cl)ccc2NC1=O (stereo not drawn) [Example 28] . State its measured pIC50. 5.05

# return recorded pIC50 for input COc1ccc(NC2N=C(c3ccccc3)c3cc(Cl)ccc3NC2=O)cc1OC (stereo not drawn) [Example 20] 5.92

###

For each of the compounds below, state its pIC50.
- MEASURED TARGET: CCKB receptor (Cavia porcellus, UniProt H0VZC5)
- Sequence (H0VZC5 1-426): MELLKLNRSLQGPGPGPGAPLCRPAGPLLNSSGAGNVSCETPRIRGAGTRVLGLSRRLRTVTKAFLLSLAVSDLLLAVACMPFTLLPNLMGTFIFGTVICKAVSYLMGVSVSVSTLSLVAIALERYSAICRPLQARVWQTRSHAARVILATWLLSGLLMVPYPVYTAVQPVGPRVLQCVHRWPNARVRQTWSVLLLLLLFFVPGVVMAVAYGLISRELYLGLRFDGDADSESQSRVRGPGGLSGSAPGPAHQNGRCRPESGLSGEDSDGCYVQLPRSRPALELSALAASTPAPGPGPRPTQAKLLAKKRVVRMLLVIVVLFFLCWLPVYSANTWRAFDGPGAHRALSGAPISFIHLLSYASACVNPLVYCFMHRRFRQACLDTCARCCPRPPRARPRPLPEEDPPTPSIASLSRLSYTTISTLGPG
- ASSAY PROTOCOL: 125I-CCK-8 receptor binding assay, CCKB (guinea pig cerebral cortex)
- CONDITIONS USED: CCKB IC50, Table 1
Quick note: pIC50 means taking -log10 of the concentration in moles per liter.

Return reported pIC50. Input compound: CCCCc1ccc(NC2N=C(c3ccccc3)c3cc(Cl)ccc3NC2=O)cc1 (centres unmarked) 6.24

Supply pIC50 value. Item: Cc1ccc(NC2N=C(c3ccccc3)c3cc(Cl)ccc3NC2=O)cc1C (centres unmarked) 6.18

Using the record for CN(Cc1ccccc1)C1N=C(c2ccccc2)c2cc(Cl)ccc2NC1=O (single isomer, unassigned) , state its measured pIC50. 6.07

Report measured pIC50; entry is O=C1Nc2ccc(Cl)cc2C(c2ccccc2)=NC1N1CCOCC1 (centres unmarked) 5.57

Return pIC50 for the following compound: O=C1Nc2ccc(Cl)cc2C(c2ccccc2)=NC1Nc1cccc(Cl)c1 (single isomer, unassigned) 6.49

###

- MEASURED TARGET: CCKB receptor (Cavia porcellus)
- ASSAY PROTOCOL: 125I-CCK-8 receptor binding assay, CCKB (guinea pig cerebral cortex)
- CONDITIONS USED: IC50 CCKB, Table 4, alkylated oxazepam derivatives
Could you please report measured pIC50 for the items listed next?
pIC50 (log units): -log10 of the concentration in mol/L.

In one line, give reported pIC50 of the entry CCOC(=O)N1C(=O)C(O)N=C(c2ccccc2)c2cc(Cl)ccc21 (centres unmarked) . 6.16

Determine its reported pIC50: C=CCN1C(=O)C(O)N=C(c2ccccc2)c2cc(Cl)ccc21 (centres unmarked) 6.01

Indicate the recorded pIC50 value for this compound: C#CCN1C(=O)C(O)N=C(c2ccccc2)c2cc(Cl)ccc21 (centres unmarked) 6.02

Recall and state the measured pIC50 for O=C1C(O)N=C(c2ccccc2)c2cc(Cl)ccc2N1Cc1ccccc1 (centres unmarked) . 6.12

Could you please provide reported pIC50 for O=C(CN1C(=O)C(O)N=C(c2ccccc2)c2cc(Cl)ccc21)c1ccccc1 (centres unmarked) ? Thanks! 6.70
